assay target: HLA-A*30:02
measurement description: IEDB peptide-MHC binding, purified MHC/competitive/radioactivity; filed as Kd, often an IC50 or EC50 that approximates it; bounds were set here for any values at or beyond the usual limits of such assays
measurement conditions: source organism: SARS coronavirus Tor2
Please use t for Kd under 0.4 µM and f for everything else, ties included.

Check out these entries, answers already filled in.
>  <sequence content>
LDEWSVATFY

>  <assay target>
HLA-A*30:02

>  <class>
f

$$$$
>  <sequence content>
EWSVATFYL

>  <assay target>
HLA-A*30:02

>  <class>
f

$$$$
>  <sequence content>
FSNSGADVLY

>  <assay target>
HLA-A*30:02

>  <class>
t

$$$$
>  <sequence content>
FYTTTGIGY

>  <assay target>
HLA-A*30:02

>  <class>
f

$$$$
>  <sequence content>
FSSRMYCSFY

>  <assay target>
HLA-A*30:02

>  <class>
t

$$$$
>  <sequence content>
VFHLYLQYI

>  <assay target>
HLA-A*30:02

>  <class>
f

$$$$

Please check: Kd for "FVSLAIDAY" , strictly under 0.4 µM or not?
f

Please check: Kd for "KYKYFSGAL" , strictly under 0.4 µM or not?
f

Please check: Kd for "FMGRIRSVY" , strictly under 0.4 µM or not?
t

Please check: Kd for "TVAYFNMVY" , strictly under 0.4 µM or not?
t

Please check: Kd for "FADINGKLY" , strictly under 0.4 µM or not?
f

Please check: Kd for "LCANEYTGNY" , strictly under 0.4 µM or not?
t

Please check: Kd for "FFFVYENAF" , strictly under 0.4 µM or not?
f

Please check: Kd for "TNSVIIMAY" , strictly under 0.4 µM or not?
f

Please check: Kd for "HTSSMRGVYY" , strictly under 0.4 µM or not?
t

Please check: Kd for "VFNGTSWFI" , strictly under 0.4 µM or not?
f

Please check: Kd for "CGSVGFNIDY" , strictly under 0.4 µM or not?
t

Please check: Kd for "PVSIINNAVY" , strictly under 0.4 µM or not?
f
